Target: Ceramide transfer protein (Homo sapiens, UniProt Q9Y5P4)
Sequence (Q9Y5P4 whole entry, the tested form may be a part): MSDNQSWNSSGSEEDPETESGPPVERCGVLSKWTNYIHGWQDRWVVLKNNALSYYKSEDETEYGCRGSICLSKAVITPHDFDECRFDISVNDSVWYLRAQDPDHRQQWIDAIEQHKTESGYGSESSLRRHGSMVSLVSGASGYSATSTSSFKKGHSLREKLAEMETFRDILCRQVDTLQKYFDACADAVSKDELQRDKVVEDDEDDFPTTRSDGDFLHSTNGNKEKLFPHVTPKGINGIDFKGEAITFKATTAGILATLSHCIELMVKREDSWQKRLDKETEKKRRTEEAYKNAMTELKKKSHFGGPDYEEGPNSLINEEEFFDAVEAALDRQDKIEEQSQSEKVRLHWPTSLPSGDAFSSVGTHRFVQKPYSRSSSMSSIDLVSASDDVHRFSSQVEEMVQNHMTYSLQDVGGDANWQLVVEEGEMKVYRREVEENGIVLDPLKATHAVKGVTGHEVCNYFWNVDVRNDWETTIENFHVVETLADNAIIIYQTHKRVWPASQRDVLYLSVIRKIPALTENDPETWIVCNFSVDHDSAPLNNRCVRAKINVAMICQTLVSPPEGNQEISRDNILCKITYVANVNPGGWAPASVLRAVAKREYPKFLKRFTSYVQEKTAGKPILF
Experiment: Binding affinity to histidine-tagged human recombinant […] containing CERT START domain pre-incubated for 30 mins before biotinylated ceramide probe addition and measured after 18 hrs post probe addition by TR-FRET binding assay
READOUT KIND: EC50
Include the unit after the number when you answer.

Below, 3 compounds whose answers are already recorded.
CCCCCCCCCCCC(=O)N[C@@H](CO)C[C@@H](O)c1ccccc1: 22 µM
CCCCCCCCCCCC(=O)N[C@H](CO)C[C@@H](O)c1ccccc1: 159 µM
CCCCCCCCCCCC(=O)N[C@@H](CO)C[C@H](O)c1ccccc1: 4 µM

Then this compound:
Ceramide transfer protein (Homo sapiens, UniProt Q9Y5P4) assay, compound CCCCCCCCCCCC(=O)N[C@H](CO)C[C@H](O)c1ccccc1 , recorded EC50 = 25 µM
